This collection of values is drawn from ChEMBL document CHEMBL3797059.

# measurement.target: UniProtKB P22607
# Sequence (P22607 whole entry): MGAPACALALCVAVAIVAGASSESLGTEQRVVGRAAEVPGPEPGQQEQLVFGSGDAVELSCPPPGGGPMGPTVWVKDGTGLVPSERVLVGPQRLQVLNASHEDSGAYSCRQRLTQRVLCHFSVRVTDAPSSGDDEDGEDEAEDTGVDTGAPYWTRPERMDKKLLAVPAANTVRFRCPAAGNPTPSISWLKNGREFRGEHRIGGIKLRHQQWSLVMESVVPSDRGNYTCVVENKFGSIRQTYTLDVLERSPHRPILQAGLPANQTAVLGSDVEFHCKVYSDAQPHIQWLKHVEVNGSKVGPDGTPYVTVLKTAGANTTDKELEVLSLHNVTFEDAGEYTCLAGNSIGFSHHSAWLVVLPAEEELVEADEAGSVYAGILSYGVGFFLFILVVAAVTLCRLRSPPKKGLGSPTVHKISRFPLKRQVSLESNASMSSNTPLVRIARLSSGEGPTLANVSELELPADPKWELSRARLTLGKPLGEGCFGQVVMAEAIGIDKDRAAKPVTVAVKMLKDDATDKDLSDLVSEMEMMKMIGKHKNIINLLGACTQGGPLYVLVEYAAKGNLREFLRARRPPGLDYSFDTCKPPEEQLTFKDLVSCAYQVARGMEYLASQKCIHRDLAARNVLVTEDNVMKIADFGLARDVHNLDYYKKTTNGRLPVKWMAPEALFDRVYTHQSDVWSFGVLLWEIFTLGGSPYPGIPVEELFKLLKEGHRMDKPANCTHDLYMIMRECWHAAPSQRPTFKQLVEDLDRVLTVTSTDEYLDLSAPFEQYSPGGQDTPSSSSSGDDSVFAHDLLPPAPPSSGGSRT
# test.method.notes: Inhibition of recombinant FGFR3 (unknown origin) using (Glu,Tyr)4:1 as substrate incubated for 60 mins by ELISA
readout.type: IC50 (nM)
Numeric answer only, unit nM assumed.

The compound COc1cc(CCc2cc(Nc3ncnc4cc(N5CCN6CCCCC6C5)ccc34)n[nH]2)cc(OC)c1 (stereo unspecified) on UniProtKB P22607: IC50 was 5

---

# measurement.target: Fibroblast growth factor receptor 2 (Homo sapiens, UniProt P21802)
# Sequence (P21802 whole entry): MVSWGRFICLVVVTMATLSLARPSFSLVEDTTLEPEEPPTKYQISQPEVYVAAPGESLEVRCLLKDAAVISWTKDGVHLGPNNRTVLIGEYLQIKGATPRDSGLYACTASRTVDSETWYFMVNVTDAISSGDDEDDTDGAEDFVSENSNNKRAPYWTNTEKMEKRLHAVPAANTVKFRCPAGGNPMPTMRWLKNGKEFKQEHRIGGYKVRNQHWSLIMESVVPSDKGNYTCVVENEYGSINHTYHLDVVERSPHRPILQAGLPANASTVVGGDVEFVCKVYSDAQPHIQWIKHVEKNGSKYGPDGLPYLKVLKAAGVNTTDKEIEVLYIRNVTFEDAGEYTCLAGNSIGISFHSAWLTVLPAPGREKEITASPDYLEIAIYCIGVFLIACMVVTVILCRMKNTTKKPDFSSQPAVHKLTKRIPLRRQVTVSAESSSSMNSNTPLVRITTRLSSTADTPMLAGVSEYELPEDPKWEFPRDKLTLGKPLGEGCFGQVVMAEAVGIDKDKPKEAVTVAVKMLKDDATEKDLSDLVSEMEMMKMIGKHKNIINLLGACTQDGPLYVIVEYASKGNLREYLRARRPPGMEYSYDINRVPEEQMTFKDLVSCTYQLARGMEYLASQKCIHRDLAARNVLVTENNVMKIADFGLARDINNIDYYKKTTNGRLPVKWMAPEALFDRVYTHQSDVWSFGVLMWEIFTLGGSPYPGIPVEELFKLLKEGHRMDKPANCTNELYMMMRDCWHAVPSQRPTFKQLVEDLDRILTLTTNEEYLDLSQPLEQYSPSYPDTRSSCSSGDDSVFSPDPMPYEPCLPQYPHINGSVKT
# test.method.notes: Inhibition of recombinant FGFR2 (unknown origin) using (Glu,Tyr)4:1 as substrate incubated for 60 mins by ELISA
readout.type: IC50

The molecule CCN1CCN(c2ccc3c(Nc4cc(CCc5cc(OC)cc(OC)c5)[nH]n4)nc(NCc4cc(C)no4)nc3c2)CC1 on Fibroblast growth factor receptor 2 (Homo sapiens, UniProt P21802): IC50 was < 10 nM

---

Reported IC50 values follow for various molecules
# measurement.target: Vascular endothelial growth factor receptor 2 (Homo sapiens, UniProt P35968)
# Sequence (P35968 whole entry): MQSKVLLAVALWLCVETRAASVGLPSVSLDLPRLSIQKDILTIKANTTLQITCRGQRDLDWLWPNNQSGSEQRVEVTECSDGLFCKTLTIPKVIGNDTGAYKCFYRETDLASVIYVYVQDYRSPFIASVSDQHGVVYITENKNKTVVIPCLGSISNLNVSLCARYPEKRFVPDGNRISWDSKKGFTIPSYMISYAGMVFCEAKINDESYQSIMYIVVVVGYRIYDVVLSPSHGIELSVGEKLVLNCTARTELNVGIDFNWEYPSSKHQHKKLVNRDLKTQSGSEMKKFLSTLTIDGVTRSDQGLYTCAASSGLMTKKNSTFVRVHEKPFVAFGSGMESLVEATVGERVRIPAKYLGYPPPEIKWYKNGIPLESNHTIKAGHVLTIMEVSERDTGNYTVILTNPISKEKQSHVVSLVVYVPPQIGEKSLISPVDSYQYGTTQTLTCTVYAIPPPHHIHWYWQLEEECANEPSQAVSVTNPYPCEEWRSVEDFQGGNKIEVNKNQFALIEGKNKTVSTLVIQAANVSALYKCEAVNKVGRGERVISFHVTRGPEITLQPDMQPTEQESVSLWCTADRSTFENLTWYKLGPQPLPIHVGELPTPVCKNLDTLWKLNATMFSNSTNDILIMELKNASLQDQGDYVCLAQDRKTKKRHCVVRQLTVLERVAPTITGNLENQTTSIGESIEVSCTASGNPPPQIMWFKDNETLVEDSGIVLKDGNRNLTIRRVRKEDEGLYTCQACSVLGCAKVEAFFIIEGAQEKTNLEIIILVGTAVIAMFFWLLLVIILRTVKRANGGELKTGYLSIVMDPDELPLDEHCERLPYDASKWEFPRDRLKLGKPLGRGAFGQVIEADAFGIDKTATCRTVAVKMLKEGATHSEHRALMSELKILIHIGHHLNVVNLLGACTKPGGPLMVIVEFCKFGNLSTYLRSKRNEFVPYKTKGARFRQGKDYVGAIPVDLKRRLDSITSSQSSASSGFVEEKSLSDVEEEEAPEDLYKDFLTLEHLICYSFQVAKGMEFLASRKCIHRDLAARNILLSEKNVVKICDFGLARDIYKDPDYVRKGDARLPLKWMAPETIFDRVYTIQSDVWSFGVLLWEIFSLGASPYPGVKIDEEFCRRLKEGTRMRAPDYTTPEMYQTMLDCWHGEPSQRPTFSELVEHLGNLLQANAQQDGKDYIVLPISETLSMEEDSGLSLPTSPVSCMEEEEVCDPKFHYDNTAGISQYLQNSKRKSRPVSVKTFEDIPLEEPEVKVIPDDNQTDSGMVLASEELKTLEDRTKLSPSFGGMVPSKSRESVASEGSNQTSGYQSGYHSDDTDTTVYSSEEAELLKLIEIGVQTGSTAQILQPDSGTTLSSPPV
# test.method.notes: Inhibition of recombinant VEGFR2 (unknown origin) using (Glu,Tyr)4:1 as substrate incubated for 60 mins by ELISA
Numeric answer only, unit nM assumed.

Here are 2 molecules together with their reported answers.
molecule	IC50, nM
COc1cc(CCc2cc(Nc3ncnc4cc(N5CCN6CCCCC6C5)ccc34)n[nH]2)cc(OC)c1 (stereo not given)	21.5
CCN1CCN(c2ccc3c(Nc4cc(CCc5c(Cl)c(OC)cc(OC)c5Cl)[nH]n4)ncnc3c2)CC1	17.5

Moving on to another molecule below.
Form: molecule = CCc1nc(Nc2cc(CCc3cc(OC)cc(OC)c3)[nH]n2)c2ccc(N3CCN(CC)CC3)cc2n1 ; IC50 = 35.8
